Value source: the RNAGym collection of RNA variant scans (doi:10.1126/science.aae0568)

B1: tRNA (parent)
chain: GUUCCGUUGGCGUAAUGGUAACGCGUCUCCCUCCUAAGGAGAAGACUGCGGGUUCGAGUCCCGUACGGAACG

- Variants of: B1
- runDescription: yeast fitness relative to wild type (ratio to wild type); higher = fitter; tRNA-Arg(CCU), competitive growth, 37 C, YPD
Fewer inactive variants are shown than the library holds.
testReadout: yeast fitness

Please review the entries below; each comes with its answer.
>>> result("C5G A21U C29A U64C")
"≤ 0.5"
>>> result("C4U A21U C24U C27A A37C A40U G67C")
"≤ 0.5"
>>> result("C11A A57G A69U")
"≤ 0.5"
>>> result("G10A A45U U53G")
"≤ 0.5"

I have this variant here, U3A C24G C29A G50C A57C , and I need its recorded yeast fitness. ≤ 0.5
